assay: Oral bioavailability of hydrocodone conjugates (plasma hydrocodone plus hydromorphone); settings: ratio of oral to IN AUC (% HC)
Residues, ends and D or L forms follow the SMILES beside them. *: point of attachment. X1 = COc1ccc2c3c1OC1C(O*)=CCC4[C@@H](C2)N(C)CC[C@]314
Property Measured: Oral:IN Index AUC

[
  {
    "Compound": "CC[C@H](C)[C@H](NC(=O)[C@H](Cc1ccccc1)NC(=O)[C@H](Cc1ccccc1)NC(=O)[C@H](CCC(=O)O)NC(=O)[C@@H](N)CCC(=O)O)C(=O)OC1=CCC2[C@H]3Cc4ccc(OC)c5c4[C@@]2(CCN3C)C1O5 (stereo partly shown) [Glu2-Phe2-Ile-HC] (H-EEFFI-X1)",
    "Observed": 1.41
  },
  {
    "Compound": "COc1ccc2c3c1OC1C(OC(=O)[C@H](CC(C)C)NC(=O)[C@@H]4CCCN4C(=O)[C@@H]4CCCN4)=CCC4[C@@H](C2)N(C)CC[C@]314 (stereo partly shown)",
    "Observed": 2.04
  },
  {
    "Compound": "CC[C@H](C)[C@H](NC(=O)[C@H](Cc1ccccc1)NC(=O)[C@H](Cc1ccccc1)NC(=O)[C@H](Cc1ccc(O)cc1)NC(=O)[C@@H](N)Cc1ccc(O)cc1)C(=O)OC1=CCC2[C@H]3Cc4ccc(OC)c5c4[C@@]2(CCN3C)C1O5 (stereo partly shown) [Tyr2-Phe2-Ile-HC] (H-YYFFI-X1)",
    "Observed": 4.35
  },
  {
    "Compound": "CC[C@H](C)[C@H](NC(=O)[C@@H]1CCCN1C(=O)[C@@H]1CCCN1C(=O)CNC(=O)CN)C(=O)OC1=CCC2[C@H]3Cc4ccc(OC)c5c4[C@@]2(CCN3C)C1O5 (stereo partly shown) [Gly2-Pro2-Ile-HC] (H-GGPPI-X1)",
    "Observed": 2.14
  }
]

* * *

test: Oral bioavailability of oxycodone conjugates (plasma oxycodone plus oxymorphone); settings: rats, n = 4 animals, analysis by LC-MS, OXY = 100
Oral (% AUC) for assorted compounds

[
  {
    "Compound": "COc1ccc2c3c1OC1C(OC(=O)[C@@H](NC(=O)[C@H](Cc4ccc(O)cc4)NC(=O)[C@@H](N)Cc4ccc(O)cc4)C(C)C)=CCC4(O)[C@@H](C2)N(C)CC[C@]314 (stereo partly drawn)",
    "Oral (% AUC)": 124
  },
  {
    "Compound": "COc1ccc2c3c1OC1C(OC(=O)[C@@H](NC(=O)CNC(=O)CN)C(C)C)=CCC4(O)[C@@H](C2)N(C)CC[C@]314 (stereo partly drawn)",
    "Oral (% AUC)": 123
  },
  {
    "Compound": "CC[C@H](C)[C@H](NC(=O)[C@H](Cc1ccccc1)NC(=O)[C@@H](N)Cc1ccccc1)C(=O)OC1=CCC2(O)[C@H]3Cc4ccc(OC)c5c4[C@@]2(CCN3C)C1O5 (stereo partly drawn)",
    "Oral (% AUC)": 59
  }
]

* * *

stability 90 C., 20 min TW for assorted molecules
test: stability 90 C., 20 min (V, BP, TW, BS) of hydrocodone conjugates; conditions: TW (abbreviation not defined)
Residues, ends and D or L forms follow the SMILES beside them. *: point of attachment. X1 = COc1ccc2c3c1OC1C(O*)=CCC4[C@@H](C2)N(C)CC[C@]314
Property Measured: stability 90 C., 20 min TW

[
  {
    "Molecule": "COc1ccc2c3c1OC1C(OC(=O)[C@H](CC(C)C)NC(=O)[C@@H]4CCCN4C(=O)[C@@H]4CCCN4)=CCC4[C@@H](C2)N(C)CC[C@]314 (some centres unmarked)",
    "Property Measured": "stability 90 C., 20 min TW",
    "Observed": 100
  },
  {
    "Molecule": "CC[C@H](C)[C@H](NC(=O)[C@@H]1CCCN1C(=O)[C@@H]1CCCN1C(=O)[C@H](CCCCN)NC(=O)[C@@H](N)CCCCN)C(=O)OC1=CCC2[C@H]3Cc4ccc(OC)c5c4[C@@]2(CCN3C)C1O5 (some centres unmarked) [Lys2-Pro2-Ile-HC] (H-KKPPI-X1)",
    "Property Measured": "stability 90 C., 20 min TW",
    "Observed": 66
  },
  {
    "Molecule": "COc1ccc2c3c1OC1C(OC(=O)[C@H](Cc4ccccc4)NC(=O)[C@@H]4CCCN4C(=O)[C@@H](N)CC(C)C)=CCC4[C@@H](C2)N(C)CC[C@]314 (some centres unmarked)",
    "Property Measured": "stability 90 C., 20 min TW",
    "Observed": 100
  },
  {
    "Molecule": "CC[C@H](C)[C@H](NC(=O)CNC(=O)CN)C(=O)OC1=CCC2[C@H]3Cc4ccc(OC)c5c4[C@@]2(CCN3C)C1O5 (some centres unmarked)",
    "Property Measured": "stability 90 C., 20 min TW",
    "Observed": 93
  },
  {
    "Molecule": "CC[C@H](C)[C@H](NC(=O)[C@H](Cc1ccc(O)cc1)NC(=O)[C@@H](N)Cc1ccc(O)cc1)C(=O)OC1=CCC2[C@H]3Cc4ccc(OC)c5c4[C@@]2(CCN3C)C1O5 (some centres unmarked)",
    "Property Measured": "stability 90 C., 20 min TW",
    "Observed": 23
  }
]

* * *

test: Oral bioavailability of hydromorphone conjugates; conditions: rats, corrected value calculated based on the bioavailability of the control (HM)

[
  {
    "Compound": "CC(C)[C@H](NC(=O)CNC(=O)CN)C(=O)OC1=CCC2[C@H]3Cc4ccc(O)c5c4[C@@]2(CCN3C)C1O5 (stereo partly drawn) [GGV-HM]",
    "Result Unit": "%",
    "Oral AUC %": 53
  },
  {
    "Compound": "CC(C)[C@H](NC(=O)[C@@H]1CCCN1C(=O)[C@@H]1CCCN1)C(=O)OC1=CCC2[C@H]3Cc4ccc(O)c5c4[C@@]2(CCN3C)C1O5 (stereo partly drawn) [PPV-HM]",
    "Result Unit": "%",
    "Oral AUC %": 24
  },
  {
    "Compound": "CC[C@H](C)[C@H](NC(=O)[C@H](CCC(=O)O)NC(=O)[C@@H](N)CCC(=O)O)C(=O)OC1=CC[C@H]2[C@H]3Cc4ccc(O)c5c4[C@@]2(CCN3C)[C@H]1O5 [EEI-HM]",
    "Result Unit": "%",
    "Oral AUC %": 56
  },
  {
    "Compound": "CC(C)C[C@H](NC(=O)CNC(=O)CN)C(=O)OC1=CCC2[C@H]3Cc4ccc(O)c5c4[C@@]2(CCN3C)C1O5 (stereo partly drawn) [GGL-HM]",
    "Result Unit": "%",
    "Oral AUC %": 22
  },
  {
    "Compound": "CC(C)[C@H](NC(=O)[C@H](CCC(=O)O)NC(=O)[C@@H](N)CCC(=O)O)C(=O)OC1=CC[C@H]2[C@H]3Cc4ccc(O)c5c4[C@@]2(CCN3C)[C@H]1O5 [EEV-HM]",
    "Result Unit": "%",
    "Oral AUC %": 21
  },
  {
    "Compound": "CC[C@H](C)[C@H](NC(=O)[C@H](Cc1ccc(O)cc1)NC(=O)[C@@H](N)Cc1ccc(O)cc1)C(=O)OC1=CCC2[C@H]3Cc4ccc(O)c5c4[C@@]2(CCN3C)C1O5 (stereo partly drawn) [YYI-HM]",
    "Result Unit": "%",
    "Oral AUC %": 32
  }
]

* * *

Oral (% AUC) for assorted molecules
experiment: Oral bioavailability of oxycodone conjugates (plasma oxycodone plus oxymorphone); details: rats, n = 4 animals, analysis by LC-MS, OXY = 100

[
  {
    "Molecule": "COc1ccc2c3c1OC1C(OC(=O)[C@@H](NC(=O)[C@H](CC(C)C)NC(=O)[C@@H](N)CC(C)C)C(C)C)=CCC4(O)[C@@H](C2)N(C)CC[C@]314 (stereo partly drawn) [Leu-Leu-Val-OC]",
    "Result Unit": "% AUC",
    "Oral (% AUC)": 81
  },
  {
    "Molecule": "CC[C@H](C)[C@H](N)C(=O)N[C@H](C(=O)N[C@H](C(=O)OC1=CCC2(O)[C@H]3Cc4ccc(OC)c5c4[C@@]2(CCN3C)C1O5)[C@@H](C)CC)[C@@H](C)CC (stereo partly drawn) [Ile-Ile-Ile-OC]",
    "Result Unit": "% AUC",
    "Oral (% AUC)": 83
  },
  {
    "Molecule": "COc1ccc2c3c1OC1C(OC(=O)[C@@H](NC(=O)[C@H](Cc4ccccc4)NC(=O)[C@@H](N)Cc4ccccc4)C(C)C)=CCC4(O)[C@@H](C2)N(C)CC[C@]314 (stereo partly drawn) [Phe-Phe-Val-OC]",
    "Result Unit": "% AUC",
    "Oral (% AUC)": 32
  },
  {
    "Molecule": "CC[C@H](C)[C@H](NC(=O)[C@H](Cc1ccc(O)cc1)NC(=O)[C@@H](N)Cc1ccc(O)cc1)C(=O)OC1=CCC2(O)[C@H]3Cc4ccc(OC)c5c4[C@@]2(CCN3C)C1O5 (stereo partly drawn) [Tyr-Tyr-Ile-OC]",
    "Result Unit": "% AUC",
    "Oral (% AUC)": 85
  },
  {
    "Molecule": "COc1ccc2c3c1OC1C(OC(=O)[C@H](CC(C)C)NC(=O)[C@H](CCC(=O)O)NC(=O)[C@@H](N)CCC(=O)O)=CCC4(O)[C@@H](C2)N(C)CC[C@]314 (stereo partly drawn) [Glu-Glu-Leu-OC]",
    "Result Unit": "% AUC",
    "Oral (% AUC)": 80
  }
]
